target: MAPK14 (human) (UniProt Q16539); test: Inhibition of IL-1 Production in LPS-Stimulated PBMCs; conditions: pbmc
Sequence (Q16539 whole entry, looked up): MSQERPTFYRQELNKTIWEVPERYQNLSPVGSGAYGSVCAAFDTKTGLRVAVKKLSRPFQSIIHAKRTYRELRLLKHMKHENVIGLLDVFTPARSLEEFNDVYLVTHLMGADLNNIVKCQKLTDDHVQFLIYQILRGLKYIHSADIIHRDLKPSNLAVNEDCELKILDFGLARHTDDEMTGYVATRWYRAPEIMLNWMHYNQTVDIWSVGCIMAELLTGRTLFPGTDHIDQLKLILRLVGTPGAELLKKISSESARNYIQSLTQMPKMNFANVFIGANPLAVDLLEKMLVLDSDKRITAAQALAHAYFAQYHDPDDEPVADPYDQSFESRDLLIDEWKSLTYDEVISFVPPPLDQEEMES
pIC50: −log10 of the molar value.
Entries and their measured pIC50 follow.
TEST_READOUT: pIC50

[[record]]
molecule = "O=c1ncn2nc(Sc3ccccc3)ccc2c1-c1c(F)cccc1C(F)(F)F"
experimental_value = "< 6.30"

[[record]]
molecule = "Cc1cccc(Sc2ccc3c(-c4c(Cl)cccc4Cl)c(=O)ncn3n2)c1"
experimental_value = "6.30 to 7.00"

[[record]]
molecule = "NC(=O)C(c1cccc(-c2cccs2)n1)c1c(Cl)cccc1Cl (stereo unspecified)"
experimental_value = "< 6.30"

[[record]]
molecule = "COc1ccc(-c2cccc(C(C(N)=O)c3c(Cl)cccc3Cl)n2)cc1 (stereo unspecified)"
experimental_value = "< 6.30"

[[record]]
molecule = "Cc1cc(F)ccc1SC1=NN2CNC(=O)C(c3c(F)cccc3F)=C2C=C1"
experimental_value = "6.30 to 7.00"

[[record]]
molecule = "NC(=O)C(c1ccc(C(O)c2ccccc2)cn1)c1c(Cl)cccc1Cl (stereo unspecified)"
experimental_value = "6.30 to 7.00"


====

target: MAPK14 (human); test: Inhibition of IL-6 Production in Whole Blood
pIC50: −log10 of the molar value.
Quick reference: pIC50 of the listed items.
TEST_READOUT: pIC50

[[record]]
compound = "CN(C)C=Nc1ccc(C2=C3C=CC(Sc4ccc(F)cc4Cl)=NN3CNC2=O)c(Cl)c1"
system_tested = "MAPK14 (human)"
experimental_value = "6.30 to 6.60"

[[record]]
compound = "O=C1NCN2N=C(Sc3ccc(F)cc3F)C=CC2=C1c1cc2c(cc1Cl)OCO2"
system_tested = "MAPK14 (human)"
experimental_value = "> 6.60"

[[record]]
compound = "O=C1NCN2N=C(Sc3ccc(F)cc3Cl)C=CC2=C1c1cc2c(cc1Cl)OCO2"
system_tested = "MAPK14 (human)"
experimental_value = "6.30 to 6.60"

[[record]]
compound = "O=C(CN1CCOCC1)Nc1ccc(C2=C3C=CC(Sc4ccc(F)cc4)=NN3CNC2=O)c(Cl)c1"
system_tested = "MAPK14 (human)"
experimental_value = "6.30 to 6.60"

[[record]]
compound = "Cc1cc(F)ccc1-c1cccc(N(C(N)=O)c2c(Cl)cccc2Cl)n1"
system_tested = "MAPK14 (human)"
experimental_value = "6.30 to 6.60"

[[record]]
compound = "Cc1cc(F)ccc1-c1cccc(N(C(N)=O)c2c(F)cccc2F)n1"
system_tested = "MAPK14 (human)"
experimental_value = "6.30 to 6.60"

[[record]]
compound = "O=c1ncn2nc(Sc3ccc(F)cc3Cl)ccc2c1-c1c(Cl)cccc1Cl"
system_tested = "MAPK14 (human)"
experimental_value = "6.30 to 6.60"

[[record]]
compound = "Cc1cc(F)ccc1-c1cccc(C(C(N)=O)c2c(Cl)cccc2Cl)n1 (centres undefined)"
system_tested = "MAPK14 (human)"
experimental_value = "< 6.30"

[[record]]
compound = "Cc1ccc(SC2=NN3CNC(=O)C(c4c(Cl)cccc4Cl)=C3C=C2)c(C)c1"
system_tested = "MAPK14 (human)"
experimental_value = "< 6.30"

[[record]]
compound = "NC(=O)C(c1cccc(-c2ccccc2C=NO)n1)c1c(Cl)cccc1Cl (centres undefined)"
system_tested = "MAPK14 (human)"
experimental_value = "< 6.30"

[[record]]
compound = "O=C1NCN2N=C(Sc3ccccc3O)C=CC2=C1c1c(Cl)cccc1Cl"
system_tested = "MAPK14 (human)"
experimental_value = "> 6.60"

[[record]]
compound = "CCc1cc(Cl)c(C2=C3C=CC(Sc4ccc(F)cc4)=NN3CNC2=O)cc1O"
system_tested = "MAPK14 (human)"
experimental_value = "< 6.30"

[[record]]
compound = "NC(=O)N(c1cccc(-c2ccc(F)cc2)n1)c1c(F)cccc1F"
system_tested = "MAPK14 (human)"
experimental_value = "< 6.30"

[[record]]
compound = "Nc1cc(F)ccc1SC1=NN2CNC(=O)C(c3c(Cl)cccc3Cl)=C2C=C1"
system_tested = "MAPK14 (human)"
experimental_value = "> 6.60"

